# System: NCI-H23
# TEST_METHOD_NOTES: Growth inhibition of human NCI-H23 cells incubated for 48 hrs by sulforhodamine B assay
# Format: functional
# ASSAY_SETUP: NCI-H23, 48 h, read-out: LC50 (the source's name)
READOUT_KIND: CC50 (µM)
Answers are plain numbers, in µM.

// known answers, use as guide
C=C1CC[C@@H]2[C@](C)(COC(C)=O)[C@H](OC(C)=O)CC[C@@]2(C)[C@H]1CC(Nc1ccc(S(=O)(=O)Nc2ncccn2)cc1)C1=CCOC1=O (stereo not given in full) | 26.7
C=C1CC[C@@H]2[C@](C)(COC(C)=O)[C@H](OC(C)=O)CC[C@@]2(C)[C@H]1CC(Nc1ccc(S(=O)(=O)Nc2nccs2)cc1)C1=CCOC1=O (stereo not given in full) | 61.6
C=C1CC[C@@H]2[C@](C)(COC(C)=O)[C@H](OC(C)=O)CC[C@@]2(C)[C@H]1CC(Nc1ccc(S(=O)(=O)Nc2ccc(Cl)nn2)cc1)C1=CCOC1=O (stereo not given in full) | 43.2
C=C1CC[C@@H]2[C@](C)(COC(C)=O)[C@H](OC(C)=O)CC[C@@]2(C)[C@H]1CC(Nc1ccc(S(=O)(=O)Nc2nccc(C)n2)cc1)C1=CCOC1=O (stereo not given in full) | 50.6

q: Give its CC50 value. Item: C=C1CC[C@@H]2[C@](C)(COC(C)=O)[C@H](OC(C)=O)CC[C@@]2(C)[C@H]1CC(Nc1ccc(S(=O)(=O)Nc2cc(C)on2)cc1)C1=CCOC1=O (stereo not given in full)
a: 31.4

###

# Tested on: SF-295
# TEST_METHOD_NOTES: Anticancer activity against human SF295 cells assessed as cell growth at 10 uM after 48 hrs by sulforhodamine B assay relative to control
# Format: functional
# ASSAY_SETUP: SF-295, 48 h, read-out: Activity
Answer each item with its documented growth at 10 µM.
One number for each entry, in %.

// known answers, use as guide
C=C1CC[C@@H]2[C@](C)(COC(C)=O)[C@H](OC(C)=O)CC[C@@]2(C)[C@H]1CC(Nc1ccc(S(=O)(=O)Nc2nccs2)cc1)C1=CCOC1=O (stereo partly specified) | 73
C=C1CC[C@@H]2[C@](C)(COC(C)=O)[C@H](OC(C)=O)CC[C@@]2(C)[C@H]1CC(Nc1ccc(S(=O)(=O)Nc2nccc(C)n2)cc1)C1=CCOC1=O (stereo partly specified) | 78.7
C=C1CC[C@@H]2[C@](C)(COC(C)=O)[C@H](OC(C)=O)CC[C@@]2(C)[C@H]1CC(Nc1ccc(S(=O)(=O)Nc2nc(C)cc(C)n2)cc1)C1=CCOC1=O (stereo partly specified) | 97
C=C1CC[C@@H]2[C@](C)(COC(C)=O)[C@H](OC(C)=O)CC[C@@]2(C)[C@H]1CC(Nc1ccc(S(=O)(=O)Nc2ncccn2)cc1)C1=CCOC1=O (stereo partly specified) | 68
C=C1CC[C@@H]2[C@](C)(COC(C)=O)[C@H](OC(C)=O)CC[C@@]2(C)[C@H]1CC(Nc1ccc(S(=O)(=O)Nc2cc(C)on2)cc1)C1=CCOC1=O (stereo partly specified) | 100

Please look at the following compound next.
q: Give its growth at 10 µM value. Item: C=C1CC[C@@H]2[C@](C)(COC(C)=O)[C@H](OC(C)=O)CC[C@@]2(C)[C@H]1CC(Nc1ccc(S(=O)(=O)Nc2ccc(Cl)nn2)cc1)C1=CCOC1=O (stereo partly specified)
a: 92.8

###

# Test system: KM12
# TEST_METHOD_NOTES: Growth inhibition of human KM12 cells incubated for 48 hrs by sulforhodamine B assay
# Type: functional
# ASSAY_SETUP: KM12, 48 h
Answer each item with its documented TGI.
Answers are plain numbers, in µM.

// known answers, use as guide
C=C1CC[C@@H]2[C@](C)(COC(C)=O)[C@H](OC(C)=O)CC[C@@]2(C)[C@H]1CC(Nc1ccc(S(=O)(=O)Nc2ccc(Cl)nn2)cc1)C1=CCOC1=O (stereo not given in full) | 3.49
C=C1CC[C@@H]2[C@](C)(COC(C)=O)[C@H](OC(C)=O)CC[C@@]2(C)[C@H]1CC(Nc1ccc(S(=O)(=O)Nc2ncccn2)cc1)C1=CCOC1=O (stereo not given in full) | 5.54
C=C1CC[C@@H]2[C@](C)(COC(C)=O)[C@H](OC(C)=O)CC[C@@]2(C)[C@H]1CC(Nc1ccc(S(=O)(=O)Nc2nccc(C)n2)cc1)C1=CCOC1=O (stereo not given in full) | 16.4
C=C1CC[C@@H]2[C@](C)(COC(C)=O)[C@H](OC(C)=O)CC[C@@]2(C)[C@H]1CC(Nc1ccc(S(=O)(=O)Nc2nccs2)cc1)C1=CCOC1=O (stereo not given in full) | 21.7

q: Give its TGI value. Item: C=C1CC[C@@H]2[C@](C)(COC(C)=O)[C@H](OC(C)=O)CC[C@@]2(C)[C@H]1CC(Nc1ccc(S(=O)(=O)Nc2cc(C)on2)cc1)C1=CCOC1=O (stereo not given in full)
a: 3.69

###

# System: NCI-H522
# TEST_METHOD_NOTES: Growth inhibition of human NCI-H522 cells incubated for 48 hrs by sulforhodamine B assay
# Format: functional
# ASSAY_SETUP: NCI-H522, 48 h
Answer each item with its documented TGI.
Give bare numbers, in nM.

// known answers, use as guide
C=C1CC[C@@H]2[C@](C)(COC(C)=O)[C@H](OC(C)=O)CC[C@@]2(C)[C@H]1CC(Nc1ccc(S(=O)(=O)Nc2nccs2)cc1)C1=CCOC1=O (stereo not given in full) | 4320
C=C1CC[C@@H]2[C@](C)(COC(C)=O)[C@H](OC(C)=O)CC[C@@]2(C)[C@H]1CC(Nc1ccc(S(=O)(=O)Nc2cc(C)on2)cc1)C1=CCOC1=O (stereo not given in full) | 2420
C=C1CC[C@@H]2[C@](C)(COC(C)=O)[C@H](OC(C)=O)CC[C@@]2(C)[C@H]1CC(Nc1ccc(S(=O)(=O)Nc2ncccn2)cc1)C1=CCOC1=O (stereo not given in full) | 2070
C=C1CC[C@@H]2[C@](C)(COC(C)=O)[C@H](OC(C)=O)CC[C@@]2(C)[C@H]1CC(Nc1ccc(S(=O)(=O)Nc2nccc(C)n2)cc1)C1=CCOC1=O (stereo not given in full) | 3100

Please look at the following molecule next.
q: Query for NCI-H522: what TGI does the record show for C=C1CC[C@@H]2[C@](C)(COC(C)=O)[C@H](OC(C)=O)CC[C@@]2(C)[C@H]1CC(Nc1ccc(S(=O)(=O)Nc2ccc(Cl)nn2)cc1)C1=CCOC1=O (stereo not given in full) ?
a: 2100

###

# Test system: MDA-MB-435
# TEST_METHOD_NOTES: Growth inhibition of human MDA-MB-435 cells incubated for 48 hrs by sulforhodamine B assay
# Format: functional
# ASSAY_SETUP: MDA-MB-435, 48 h
We label by threshold. Values of GI50 strictly beneath 2000 nM are fulfilled. Values of 2000 nM and up are not fulfilled.

Worked examples follow.
C=C1CC[C@@H]2[C@](C)(COC(C)=O)[C@H](OC(C)=O)CC[C@@]2(C)[C@H]1CC(Nc1ccc(S(=O)(=O)Nc2cc(C)on2)cc1)C1=CCOC1=O (stereo not given in full) | fulfilled
C=C1CC[C@@H]2[C@](C)(COC(C)=O)[C@H](OC(C)=O)CC[C@@]2(C)[C@H]1CC(Nc1ccc(S(=O)(=O)Nc2nccc(C)n2)cc1)C1=CCOC1=O (stereo not given in full) | not fulfilled
C=C1CC[C@@H]2[C@](C)(COC(C)=O)[C@H](OC(C)=O)CC[C@@]2(C)[C@H]1CC(Nc1ccc(S(=O)(=O)Nc2ncccn2)cc1)C1=CCOC1=O (stereo not given in full) | fulfilled
C=C1CC[C@@H]2[C@](C)(COC(C)=O)[C@H](OC(C)=O)CC[C@@]2(C)[C@H]1CC(Nc1ccc(S(=O)(=O)Nc2ccc(Cl)nn2)cc1)C1=CCOC1=O (stereo not given in full) | fulfilled

q: Strictly below 2000 nM in GI50? C=C1CC[C@@H]2[C@](C)(COC(C)=O)[C@H](OC(C)=O)CC[C@@]2(C)[C@H]1CC(Nc1ccc(S(=O)(=O)Nc2nccs2)cc1)C1=CCOC1=O (stereo not given in full)
a: not fulfilled

###

# Test system: OVCAR-4
# TEST_METHOD_NOTES: Anticancer activity against human OVCAR4 cells assessed as cell growth at 10 uM after 48 hrs by sulforhodamine B assay relative to control
# Assay type: functional
# ASSAY_SETUP: OVCAR-4, 48 h, read-out: Activity
Answer each item with its documented growth at 10 µM.
Give bare numbers, in %.

C=C1CC[C@@H]2[C@](C)(COC(C)=O)[C@H](OC(C)=O)CC[C@@]2(C)[C@H]1CC(Nc1ccc(S(=O)(=O)Nc2nccc(C)n2)cc1)C1=CCOC1=O (stereo partly specified) | 32.3

Hey, quick one: what's growth at 10 µM for each of these?
1. C=C1CC[C@@H]2[C@](C)(COC(C)=O)[C@H](OC(C)=O)CC[C@@]2(C)[C@H]1CC(Nc1ccc(S(=O)(=O)Nc2ccc(Cl)nn2)cc1)C1=CCOC1=O (stereo partly specified)
2. C=C1CC[C@@H]2[C@](C)(COC(C)=O)[C@H](OC(C)=O)CC[C@@]2(C)[C@H]1CC(Nc1ccc(S(=O)(=O)Nc2nc(C)cc(C)n2)cc1)C1=CCOC1=O (stereo partly specified)

a:
[30.9, 65]

Provenance of the data: ChEMBL document CHEMBL4033712
